B1: POU domain, class 4, transcription factor 1, residues 266 to 347; numbered along this chain, Q01851 (parent)
chain: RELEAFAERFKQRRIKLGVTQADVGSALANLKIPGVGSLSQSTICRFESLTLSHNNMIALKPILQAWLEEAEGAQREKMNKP

Variants of: B1
method: abundance fitness (aPCA) (normalised: wild type 0, dead -1); higher = more abundant; growth selection in yeast, the domain comes from the species named
study-conditions: Homo sapiens
Mark met for reported abundance fitness of -0.2 or greater; mark not met for anything smaller.

Test whether the variant RELEAFAERFKQRRIKLGVTQADVGSALANLKIPGVGSLSQSTQCRFESLTLSHNNMIALKPILQAWLEEAEGAQREKMNKP records abundance fitness of -0.2 or higher. not met

Test whether the variant RELEAFAERFKQRRIKLGVTQADVGSALANLKIPGVGSLSQSTICRFESLTLSHNNMIALKPIVQAWLEEAEGAQREKMNKP records abundance fitness of -0.2 or higher. not met

Test whether the variant RELEAFAERFKQARIKLGVTQADVGSALANLKIPGVGSLSQSTICRFESLTLSHNNMIALKPILQAWLEEAEGAQREKMNKP records abundance fitness of -0.2 or higher. met

Test whether the variant RELEAFAERFKQRRIKLGVTQADVGSALANLKIPGVGSLSQSTICRFESLTSSHNNMIALKPILQAWLEEAEGAQREKMNKP records abundance fitness of -0.2 or higher. not met

Test whether the variant RELEAFAERFKQRRIKLGVTQADVGSALCNLKIPGVGSLSQSTICRFESLTLSHNNMIALKPILQAWLEEAEGAQREKMNKP records abundance fitness of -0.2 or higher. met

Test whether the variant RELEAFAERFKQRRIKLGVTQADVGSALANLKIPGVGSLSQSTICRFESLTLSHNNMIALKPILQAWLEEAEGAQRAKMNKP records abundance fitness of -0.2 or higher. met

Test whether the variant RELEAFAERFKQRRIKLGVTQADVWSALANLKIPGVGSLSQSTICRFESLTLSHNNMIALKPILQAWLEEAEGAQREKMNKP records abundance fitness of -0.2 or higher. met

Test whether the variant RELEAFAERFKQRRIKLGVTQADVGSALANLKIPGVGSLSQSTICRFESLTLSHNNMIALQPILQAWLEEAEGAQREKMNKP records abundance fitness of -0.2 or higher. met

Test whether the variant RELEAFAERFKQRRIKLGVTQADVGSALANLKIPGVGSLSQSTICRFESLTLSHNNMIALKPILQAWLEIAEGAQREKMNKP records abundance fitness of -0.2 or higher. met

Test whether the variant RELEAFAERFKQRRIKLGVTQADVGSALANLKIPGVGSLSQSTICRFEFLTLSHNNMIALKPILQAWLEEAEGAQREKMNKP records abundance fitness of -0.2 or higher. not met

Cited source: the Human Domainome abundance scans (Beltran et al. 2025)
